Biological target: Transporter, GABA (Rattus norvegicus, UniProt P23978)
Construct: tissue Eurofins Panlabs 226400; host or cells: rat brain membranes (own knowledge of the vendor's assay and of the cited Shank et al. 1990 method)
Experiment: GABA transporter radioligand binding assay (Cat # 226400)
Settings: reference compound, batch 424211; read-out: Concurrent IC50
Method: The activity of compound Compound 5 was evaluated in Radioligand Binding assays. Methods employed herein have been adapted from the scientific literature to maximize reliability and reproducibility. […] Where presented, IC50 values were determined by a non-linear, least squares regression analysis using MathIQ™ (ID Business Solutions Ltd., UK). […] Where presented, the Hill coefficient (nH), defining the slope of the competitive binding curve, was calculated using MathIQ™. […]
Assay Endpoint: IC50 (nM)
All answers are understood in nM, so give the number only.

**Q:** // lookup IC50 for O=C(O)C1=CCCN(CCON=C(c2ccccc2)c2ccccc2)C1 [NO-711]
**A:** 170

====

molecular target: Transporter, GABA (Rattus norvegicus, UniProt P23978); construct: tissue Eurofins Panlabs 226400; host or cells: rat brain membranes (own knowledge of the vendor's assay and of the cited Shank et al. 1990 method); experiment: GABA transporter radioligand binding assay (Cat # 226400)
Where a name gives a salt, the structure may show the parent alone.
Assay Endpoint: pKi
To interpret pKi, take it as minus log10 of a concentration measured in moles per litre.

**Q:** // lookup pKi for NC1C=C(C(=O)O)CCC1 (stereo not shown) [Compound 5, hydrochloride]
**A:** 4.56

====

target: Transporter, GABA (Rattus norvegicus, UniProt P23978); construct: tissue Eurofins Panlabs 226400; host or cells: rat brain membranes (own knowledge of the vendor's assay and of the cited Shank et al. 1990 method); assay: GABA transporter radioligand binding assay (Cat # 226400)
Where a name gives a salt, the structure may show the parent alone.
Assay Endpoint: IC50 (µM)
All answers are understood in µM, so give the number only.

**Q:** // lookup IC50 for NC1C=C(C(=O)O)CCC1 (stereo not shown) [Compound 5, hydrochloride]
**A:** 28.1

====

target: human GABA-A α2β3γ2 ion channels (Homo sapiens, UniProt P28472+P47869); construct: expressed in transfected cells; test: Human GABA-A receptor IonFlux HT agonist assay (Cl-flux), α2β3γ2; type: cell-based; details: GABAA receptor chloride flux assay; read-out: Estimated EC50 (μM), activation of α2β3γ2-containing GABAA receptors
Sequence (P47869 29-451): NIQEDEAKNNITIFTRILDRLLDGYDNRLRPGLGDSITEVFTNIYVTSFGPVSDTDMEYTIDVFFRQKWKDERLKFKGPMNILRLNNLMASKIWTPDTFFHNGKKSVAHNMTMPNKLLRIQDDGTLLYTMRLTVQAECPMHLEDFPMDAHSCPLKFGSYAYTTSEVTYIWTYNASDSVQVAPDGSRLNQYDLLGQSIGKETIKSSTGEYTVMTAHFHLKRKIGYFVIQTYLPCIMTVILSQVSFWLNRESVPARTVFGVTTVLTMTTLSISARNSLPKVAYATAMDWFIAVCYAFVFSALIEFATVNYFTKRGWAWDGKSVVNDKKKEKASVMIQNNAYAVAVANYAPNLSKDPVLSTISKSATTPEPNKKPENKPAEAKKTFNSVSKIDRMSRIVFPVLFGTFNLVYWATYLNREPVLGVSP
Sequence (P28472 26-473): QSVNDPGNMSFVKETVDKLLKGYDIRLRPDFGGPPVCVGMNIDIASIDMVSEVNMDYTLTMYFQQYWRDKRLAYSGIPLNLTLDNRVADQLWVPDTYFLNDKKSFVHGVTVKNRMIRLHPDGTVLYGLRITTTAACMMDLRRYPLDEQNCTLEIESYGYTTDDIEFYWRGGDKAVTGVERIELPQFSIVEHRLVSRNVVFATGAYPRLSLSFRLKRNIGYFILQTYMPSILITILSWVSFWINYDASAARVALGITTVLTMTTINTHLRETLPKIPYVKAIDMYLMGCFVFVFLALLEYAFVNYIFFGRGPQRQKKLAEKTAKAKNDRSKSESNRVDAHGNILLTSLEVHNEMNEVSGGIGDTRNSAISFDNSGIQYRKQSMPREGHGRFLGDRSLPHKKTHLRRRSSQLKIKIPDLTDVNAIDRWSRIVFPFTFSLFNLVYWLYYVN
Sequence (P18507 40-467 partner limits assumed): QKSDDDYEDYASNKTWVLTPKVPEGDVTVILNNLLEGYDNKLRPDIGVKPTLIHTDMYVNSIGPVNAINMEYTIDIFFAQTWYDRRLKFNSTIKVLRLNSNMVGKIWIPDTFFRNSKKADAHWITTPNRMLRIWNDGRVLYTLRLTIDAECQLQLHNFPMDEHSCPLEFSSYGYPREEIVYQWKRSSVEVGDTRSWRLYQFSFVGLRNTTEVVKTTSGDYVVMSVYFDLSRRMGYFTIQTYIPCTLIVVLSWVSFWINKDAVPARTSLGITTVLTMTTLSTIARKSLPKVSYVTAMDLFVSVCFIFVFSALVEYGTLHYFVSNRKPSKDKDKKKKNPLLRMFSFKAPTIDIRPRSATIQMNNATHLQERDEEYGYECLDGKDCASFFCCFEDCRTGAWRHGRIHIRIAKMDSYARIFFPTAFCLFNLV
Assay Endpoint: EC50
Lab note: write values as number then unit, every time.

**Q:** // lookup EC50 for O=C(O)C1=CCNCC1
**A:** 18.7 µM

All figures here come from patent US12252457B2.
